src = patent US6013647A

# reported Growth areas (diameter) of siderophore indicator strain; entries follow
# Tested on: E. coli AB 2847
# testSummary: Siderophore efficacy, growth promotion of indicator mutant (DIN 58 940)
# Format: cell-based
# conditionSummary: test substances 5 μg/test plate
Where a SMILES comes first, the peptide text is derived from it. [ ]: non-standard residue; d: D form. Orn(N5-OH,N5-Ac) = CC(=O)N(O)CCC[C@H](N)C(=O)O
readoutLabel: Growth areas (diameter) of siderophore indicator strain (mm)

{"compound": "COC(=O)Oc1cccc2c(=O)n(CC(=O)O)c(=O)oc12", "result": 15}
{"compound": "COC(=O)Oc1cccc2c(=O)n(N=Cc3ccc(C(=O)O)cc3)c(=O)oc12", "result": 24}
{"compound": "CC(=O)N([O-])CCC[C@@H]1NC(=O)CNC(=O)CNC(=O)CNC(=O)[C@H](CCCN([O-])C(C)=O)NC(=O)[C@H](CCCN([O-])C(C)=O)NC1=O.[Fe+3] [ferrichrome, reference compound] (cyclo(GGG[Orn(N5-OH,N5-Ac)][Orn(N5-OH,N5-Ac)][Orn(N5-OH,N5-Ac)]))", "result": 23}
{"compound": "COC(=O)Oc1cccc2c(=O)n([C@@H](C)C(=O)O)c(=O)oc12", "result": 0}
{"compound": "C[C@H](NC(=O)Cn1c(=O)oc2c(O)cccc2c1=O)C(=O)O", "result": 0}
{"compound": "COC(=O)Oc1cccc2c(=O)n(CC(=O)NCC(=O)O)c(=O)oc12", "result": 10}

====

# System: Salmonella typhimurium enb-7
# testSummary: Siderophore efficacy, growth promotion of indicator mutant (DIN 58 940)
# Type: cell-based
# conditionSummary: Salmonella enb-7; test substances 5 μg/test plate
Mark true (1) only when Growth areas (diameter) of siderophore indicator strain stays strictly below 20 mm. Values equal to the cut-off are false (0).

{"molecule": "COC(=O)Oc1cccc2c(=O)n(CC(=O)O)c(=O)oc12 [substance 1]", "class": "true (1)"}
{"molecule": "COC(=O)Oc1cccc2c(=O)n(CC(=O)NCC(=O)O)c(=O)oc12 [substance 2]", "class": "false (0)"}
{"molecule": "COC(=O)Oc1cccc2c(=O)n([C@@H](C)C(=O)O)c(=O)oc12 [substance 7]", "class": "true (1)"}
{"molecule": "C[C@H](NC(=O)Cn1c(=O)oc2c(O)cccc2c1=O)C(=O)O [substance 4]", "class": "true (1)"}
{"molecule": "COC(=O)Oc1cccc2c(=O)n(N=Cc3ccc(C(=O)O)cc3)c(=O)oc12 [substance 9]", "class": "true (1)"}
